- system name: human mAChR M1 (Homo sapiens, UniProt P11229)
- Sequence (P11229 whole entry): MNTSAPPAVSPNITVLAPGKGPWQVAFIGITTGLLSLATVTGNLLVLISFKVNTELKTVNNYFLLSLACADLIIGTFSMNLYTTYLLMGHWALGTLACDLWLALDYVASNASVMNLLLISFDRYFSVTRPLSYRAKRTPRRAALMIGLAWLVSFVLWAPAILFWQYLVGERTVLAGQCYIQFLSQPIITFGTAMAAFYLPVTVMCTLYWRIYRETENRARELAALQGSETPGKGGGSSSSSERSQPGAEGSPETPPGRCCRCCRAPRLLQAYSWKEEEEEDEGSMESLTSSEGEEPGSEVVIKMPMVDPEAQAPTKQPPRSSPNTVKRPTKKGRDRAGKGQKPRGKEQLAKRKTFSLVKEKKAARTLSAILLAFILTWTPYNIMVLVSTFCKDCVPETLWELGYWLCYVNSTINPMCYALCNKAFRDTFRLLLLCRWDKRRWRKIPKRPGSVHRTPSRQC
- test: mAChR M1 cell-based functional assay (calcium mobilization), PAM mode: increase in the EC20 acetylcholine response
pEC50: −log10 of the molar value.
Classification field: enter met for pEC50 values not below 6, not met for values below it.

// below: answered molecules
INSERT INTO results (molecule, system_name, assigned_label) VALUES
  ('[2H]C1([2H])c2ncccc2C(=O)N1Cc1c(F)cc(-c2cccc3nn(CC)cc23)cc1F [Compound 42]', 'human mAChR M1 (Homo sapiens, UniProt P11229)', 'met'),
  ('[2H]C1([2H])c2ncccc2C(=O)N1Cc1c(F)cc(-c2cnc(OC)c3c2cnn3C)cc1F [Compound 253]', 'human mAChR M1 (Homo sapiens, UniProt P11229)', 'not met'),
  ('[2H]C1([2H])c2ncccc2C(=O)N1Cc1c(F)cc(-c2ccc(OC)c3nn(C)cc23)cc1F [Compound 39]', 'human mAChR M1 (Homo sapiens, UniProt P11229)', 'met'),
  ('[2H]C1([2H])c2ncccc2C(=O)N1Cc1c(F)cc(-c2cccc3nn(C([2H])([2H])[2H])cc23)cc1C1CCCC1 [Compound 224]', 'human mAChR M1 (Homo sapiens, UniProt P11229)', 'not met'),
  ('[2H]C1([2H])c2ncccc2C(=O)N1Cc1c(F)cc(-c2ccc(OCCN(C)C)c3nn(C)cc23)cc1F [Compound 131]', 'human mAChR M1 (Homo sapiens, UniProt P11229)', 'met');

[ask] Exam item: decide whether the reported pEC50 for [2H]C1([2H])c2ncccc2C(=O)N1Cc1c(F)cc(-c2cccc3nn(CF)cc23)cc1F [Compound 44] is at least 6.
[reply] met
